Biological target: IKZF1 ZNF2_ZNF3 Q1F degron-tagged CD19 CAR (Homo sapiens, UniProt Q13422, Q146F)
Construct: ZNF2_ZNF3 Q1F degron (GERPFFCNQCGASFTQKGNLLRHIKLHSGEKPFKCHLCNYACRRRDALTGHLRTHS); fused on or other part: anti-CD19 scFv, CD28 transmembrane domain, 4-1BB costimulatory domain, CD3 zeta signaling domain (the CAR that carries the degron), and Nluc
Sequence (Q13422 whole entry Q146F, the tested form may be a part): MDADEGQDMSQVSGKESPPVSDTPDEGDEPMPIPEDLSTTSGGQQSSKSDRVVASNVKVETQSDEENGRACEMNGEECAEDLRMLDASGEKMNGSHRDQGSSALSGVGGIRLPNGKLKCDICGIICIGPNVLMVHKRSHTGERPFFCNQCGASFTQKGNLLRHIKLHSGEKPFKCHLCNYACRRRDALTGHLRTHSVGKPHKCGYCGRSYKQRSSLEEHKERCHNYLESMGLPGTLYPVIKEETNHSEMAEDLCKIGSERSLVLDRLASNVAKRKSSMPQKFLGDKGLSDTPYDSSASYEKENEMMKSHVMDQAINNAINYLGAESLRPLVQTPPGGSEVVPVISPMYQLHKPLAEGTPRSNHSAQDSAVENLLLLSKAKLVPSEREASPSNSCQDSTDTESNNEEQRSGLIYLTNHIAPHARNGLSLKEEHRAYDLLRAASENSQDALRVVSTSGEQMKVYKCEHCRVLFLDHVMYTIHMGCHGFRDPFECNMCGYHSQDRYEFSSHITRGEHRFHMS
Test: Degradation of Q1F degron-tagged CD19 CAR in Jurkat cells (flow cytometry of CAR levels)
Assay type: cell-based
Conditions: Ymax is the % protein degraded; Jurkat cells expressing Q1F degron-tagged CD19 CAR; 18 hours; read-out: Q1F Jurkat-YMax
Measurement type: Dmax (%)

O=C1CCC(N2Cc3c(cc(F)c(C4CCN(Cc5cccnc5)CC4)c3F)C2=O)C(=O)N1 (stereo not shown): 89.7
Cn1cnc2ccc(CN3CCC(c4c(F)cc5c(c4F)CN(C4CCC(=O)NC4=O)C5=O)CC3)cc21 (stereo not shown): 91.8
O=C1CCC(N2Cc3c(cc(F)c(C4CCN(Cc5ccc(C(F)F)cc5)CC4)c3F)C2=O)C(=O)N1 (stereo not shown): 92
O=C1CCC(N2Cc3c(cc(F)c(C4CCN(Cc5nc6ccccc6s5)CC4)c3F)C2=O)C(=O)N1 (stereo not shown): 86.3
O=C1CCC(N2Cc3c(cc(F)c(C4(O)CCN(Cc5ccc6cn[nH]c6c5)CC4)c3F)C2=O)C(=O)N1 (stereo not shown): 87.7
O=C1CCC(N2Cc3c(cc(F)c(CN4CCN(Cc5ccc6c(c5)OCCO6)CC4)c3F)C2=O)C(=O)N1 (stereo not shown): 88.8
COc1cccc(CN2CCC(O)(c3c(F)cc4c(c3F)CN(C3CCC(=O)NC3=O)C4=O)CC2)c1 (stereo not shown): 77.7

* * *

Target: IKZF1 ZNF2_ZNF3 Q1F degron-tagged CD19 CAR (Homo sapiens, UniProt Q13422, Q146F)
Construct: ZNF2_ZNF3 Q1F degron (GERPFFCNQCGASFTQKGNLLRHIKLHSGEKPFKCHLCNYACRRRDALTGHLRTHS); fused on or other part: anti-CD19 scFv, CD28 transmembrane domain, 4-1BB costimulatory domain, CD3 zeta signaling domain (the CAR that carries the degron), and Nluc
Test: Degradation of Q1F degron-tagged CD19 CAR in Jurkat cells (flow cytometry of CAR levels)
Assay type: cell-based
Conditions: Jurkat cells expressing CD19 CAR tagged with IKZF1 ZNF2_ZNF3 Q1F; 18 hours at 37° C.; CAR levels normalized to untreated cells; read-out: Q1F Jurkat IC50
Measurement type: DC50 (nM)

O=C1CCC(N2Cc3c(cc(F)c(C4CCN(Cc5nnc(-c6ccccc6)o5)CC4)c3F)C2=O)C(=O)N1 (stereo not shown): 165

a: O=C1CCC(N2Cc3c(cc(F)c(C4CCN(Cc5ccc(C(F)(F)F)cc5)CC4)c3F)C2=O)C(=O)N1 (stereo not shown)
b: O=C1CCC(N2Cc3c(cc(F)c(C4CCN(CCC(F)(F)F)CC4)c3F)C2=O)C(=O)N1 (stereo not shown)
Could you please tell me which of these two has the higher DC50: a or b ? Answer by stating the label of the chosen item.
b
(b: 10.8 nM, a: 0.91 nM)

* * *

Molecular target: IKZF1 ZNF2_ZNF3 Q1F degron-tagged CD19 CAR (Homo sapiens, UniProt Q13422, Q146F)
Construct: ZNF2_ZNF3 Q1F degron (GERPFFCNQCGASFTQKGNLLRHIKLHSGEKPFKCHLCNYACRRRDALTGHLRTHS); fused on or other part: anti-CD19 scFv, CD28 transmembrane domain, 4-1BB costimulatory domain, CD3 zeta signaling domain (the CAR that carries the degron), and Nluc
Assay: Degradation of Q1F degron-tagged CD19 CAR in Jurkat cells (flow cytometry of CAR levels)
Type: cell-based
Conditions: Jurkat cells expressing CD19 CAR tagged with IKZF1 ZNF2_ZNF3 Q1F; 18 hours at 37° C.; CAR levels normalized to untreated cells; read-out: Q1F Jurkat IC50
Measurement type: DC50 (nM)

Recorded DC50, per entry:
O=C1CCC(N2Cc3c(cc(F)c(C4CCN(Cc5ncccc5Br)CC4)c3F)C2=O)C(=O)N1 (stereo not drawn): 1.36
CN(CCN1CCC(c2c(F)cc3c(c2F)CN(C2CCC(=O)NC2=O)C3=O)CC1)Cc1ccccc1 (stereo not drawn): 1.09
O=C1CCC(N2Cc3c(cc(F)c(C4CCN(Cc5ccc6[nH]ncc6c5)CC4)c3F)C2=O)C(=O)N1 (stereo not drawn): 0.103
O=C1CC[C@@H](N2Cc3c(cc(F)c(C4CC5CCC(C4)N5Cc4ccc5ncsc5c4)c3F)C2=O)C(=O)N1 (stereo partly drawn): 5.94
O=C1CCC(N2Cc3c(cc(F)c(C4(O)CCN(Cc5nc6ccccc6s5)CC4)c3F)C2=O)C(=O)N1 (stereo not drawn): 101
O=C1CC[C@H](N2Cc3c(cc(F)c(C4CC5CCC(C4)N5Cc4ccc5ncsc5c4)c3F)C2=O)C(=O)N1 (stereo partly drawn): 0.427

I: O=C1CCC(N2Cc3c(cc(F)c(C(=O)N4Cc5cccnc5C4)c3F)C2=O)C(=O)N1 (stereo not drawn)
II: O=C1CCC(N2Cc3c(cc(F)c(C4CCN(C5CCC5)CC4)c3F)C2=O)C(=O)N1 (stereo not drawn)
Which value of DC50 is numerically greater: that of I or that of II ? Your answer should be the label of the entry you select.
I

P: O=C1CCC(N2Cc3c(cc(F)c(C4CCN(Cc5ccc(F)cc5)CC4)c3F)C2=O)C(=O)N1 (stereo not drawn)
Q: CNC(=O)CN1CCC(c2c(F)cc3c(c2F)CN(C2CCC(=O)NC2=O)C3=O)CC1 (stereo not drawn)
Identify the entry with the smaller DC50: P or Q . Refer to your chosen entry by its label in the reply.
P
(P: 1.43 nM, Q: 65.1 nM)

1: CN1CCC(N2CCC(c3c(F)cc4c(c3F)CN(C3CCC(=O)NC3=O)C4=O)CC2)CC1 (stereo not drawn)
2: O=C1CCC(N2Cc3c(cc(F)c(C4CCN(Cc5ccc6ncsc6c5)CC4)c3F)C2=O)C(=O)N1 (stereo not drawn)
Endpoint returns the identifier whose DC50 is numerically larger, either 1 or 2 . The response must carry the label of the picked entry.
1
(1: 22.1 nM, 2: 0.576 nM)

* * *

Molecular target: IKZF1 ZNF2_ZNF3 Q1F degron-tagged CD19 CAR (Homo sapiens, UniProt Q13422, Q146F)
Construct: ZNF2_ZNF3 Q1F degron (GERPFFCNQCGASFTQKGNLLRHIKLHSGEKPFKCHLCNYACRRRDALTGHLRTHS); fused on or other part: anti-CD19 scFv, CD28 transmembrane domain, 4-1BB costimulatory domain, CD3 zeta signaling domain (the CAR that carries the degron), and Nluc
Assay: Degradation of Q1F degron-tagged CD19 CAR in Jurkat cells (flow cytometry of CAR levels)
Format: cell-based
Conditions: Jurkat, 18 h, read-out: Q1F Jurkat-YMax
Protocol: Q1F degron-targeting compounds were screened in Jurkat cells engineered to express a IKZF1 ZNF2_ZNF3 Q1F. The cell line was generated with lentiviral vectors containing CD19 CARs tagged with IKZF1 ZNF2_ZNF3 QIF Nluc, which were transduced into Jurkat cells. […] The cells were incubated at 4° C. in the staining reagents for 20 mins and then washed 3 times before being read on the flow cytometer. […] EC50 and Ymin values were calculated using the resulting titration curve. […]
# Dmax listing for each entry below
Numbers only here, please. The scale is %.

Cc1nc(C)c(S(=O)(=O)N(C)CCN2CCC(O)(c3c(F)cc4c(c3F)CN(C3CCC(=O)NC3=O)C4=O)CC2)s1 (stereo not drawn): 58.9
Cc1cc(-c2cc3c(cc2F)C(=O)N(C2CCC(=O)NC2=O)C3)nc(N)c1C (stereo not drawn): 91.7
CNc1ccc2c(n1)CN(C(=O)c1c(F)cc3c(c1F)CN(C1CCC(=O)NC1=O)C3=O)C2 (stereo not drawn): 95.3
Cc1cc(-c2c(F)cc3c(c2F)CN(C2CCC(=O)NC2=O)C3=O)nc(N)c1C (stereo not drawn): 69.1
O=C1CCC(N2Cc3cc(C4CCN(Cc5ccc(C(F)(F)F)cc5)CC4)c(F)cc3C2=O)C(=O)N1 (stereo not drawn): 89.3

# evaluate next
Quick one: Dmax of N#Cc1ccc2c(c1)CN(C(=O)c1c(F)cc3c(c1F)CN(C1CCC(=O)NC1=O)C3=O)CC2 (stereo not drawn) ?
95.5

* * *

Molecular target: IKZF1 ZNF2_ZNF3 Q1F degron-tagged CD19 CAR (Homo sapiens, UniProt Q13422, Q146F)
Construct: ZNF2_ZNF3 Q1F degron (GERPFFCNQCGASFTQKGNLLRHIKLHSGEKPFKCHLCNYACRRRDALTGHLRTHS); fused on or other part: anti-CD19 scFv, CD28 transmembrane domain, 4-1BB costimulatory domain, CD3 zeta signaling domain (the CAR that carries the degron), and Nluc
Assay: Degradation of Q1F degron-tagged CD19 CAR in Jurkat cells (flow cytometry of CAR levels)
Format: cell-based
Details: Ymax is the % protein degraded; Jurkat cells expressing Q1F degron-tagged CD19 CAR; 18 hours; read-out: Q1F Jurkat-YMax
Measurement type: Dmax (%)

Cc1cc(CN2CCC(c3c(F)cc4c(c3F)CN(C3CCC(=O)NC3=O)C4=O)CC2)nn1C (stereo not drawn): 84.7
COc1ccnc(CN2CCC(O)(c3c(F)cc4c(c3F)CN(C3CCC(=O)NC3=O)C4=O)CC2)c1 (stereo not drawn): 67.4
O=C1CCC(N2Cc3c(cc(F)c(C4(O)CCN(Cc5cc(F)c(C(F)(F)F)cc5F)CC4)c3F)C2=O)C(=O)N1 (stereo not drawn): 70.7
Cc1nc(CN2CCC(c3c(F)cc4c(c3F)CN(C3CCC(=O)NC3=O)C4=O)CC2)c(C)o1 (stereo not drawn): 84.4
O=C1CCC(N2Cc3c(cc(F)c(C4(O)CCN(Cc5nc6ccccc6s5)CC4)c3F)C2=O)C(=O)N1 (stereo not drawn): 63.2
O=C1CCC(N2Cc3c(cc(F)c(C4(O)CCN(Cc5ccc(C(F)(F)F)cc5Br)CC4)c3F)C2=O)C(=O)N1 (stereo not drawn): 82.8
CN(CCN1CCC(c2c(F)cc3c(c2F)CN(C2CCC(=O)NC2=O)C3=O)CC1)Cc1ccccc1 (stereo not drawn): 85.5
Cc1ccc(CN2CCC(c3c(F)cc4c(c3F)CN(C3CCC(=O)NC3=O)C4=O)CC2)cc1F (stereo not drawn): 91.8
O=C1CCC(N2Cc3c(cc(F)c(C(=O)N4CCc5cc(F)c(F)cc5C4)c3F)C2=O)C(=O)N1 (stereo not drawn): 92.5
O=C1CCC(N2Cc3c(cc(F)c(C4CCN(Cc5ccc6scnc6c5)CC4)c3F)C2=O)C(=O)N1 (stereo not drawn): 93.3
CS(=O)(=O)c1ccc(CN2CCC(c3c(F)cc4c(c3F)CN(C3CCC(=O)NC3=O)C4=O)CC2)cc1 (stereo not drawn): 92.6
O=C1CCC(N2Cc3cc(C4CCN(Cc5cccc6ncsc56)CC4)c(F)cc3C2=O)C(=O)N1 (stereo not drawn): 92.1
CNC(=O)CN1CCC(c2c(F)cc3c(c2F)CN(C2CCC(=O)NC2=O)C3=O)CC1 (stereo not drawn): 74.2
O=C1CCC(N2Cc3cc(C4CCN(Cc5ccc6cn[nH]c6c5)CC4)c(F)cc3C2=O)C(=O)N1 (stereo not drawn): 94.2
CN1CCC(N2CCC(c3c(F)cc4c(c3F)CN(C3CCC(=O)NC3=O)C4=O)CC2)CC1 (stereo not drawn): 80.1
CCCCN1CCC(c2c(F)cc3c(c2F)CN(C2CCC(=O)NC2=O)C3=O)CC1 (stereo not drawn): 79.7
O=C1CCC(N2Cc3c(cc(F)c(C4(O)CCN(Cc5cccc(C(F)(F)F)c5)CC4)c3F)C2=O)C(=O)N1 (stereo not drawn): 78.2
O=C1CCC(N2Cc3cc(C4CCN(Cc5nc6ccccc6s5)CC4)c(F)cc3C2=O)C(=O)N1 (stereo not drawn): 76.8
